// reported IP per item
- Test system: Human immunodeficiency virus 1
- methodNotes: Antiviral activity against HIV1 infected in human MT4 cells expressing GFP incubated for 48 to 72 hrs in absence of 50% normal human serum by multiple round viral replication kinetics assay
- Format: functional
valueType: IP (nM)

[[record]]
compoundstring = "O=C1N[C@]2(CC[C@H]3C[C@H]32)n2c1c1c(c(O)c2=O)C(=O)N(Cc2ccc(F)c(Cl)c2)CC1"
unitofmeasurement = "nM"
resultvalue = 2.5

[[record]]
compoundstring = "Cc1nnc(C(=O)NC(C)(C)c2nc(C(=O)NCc3ccc(F)cc3)c(O)c(=O)n2C)o1"
unitofmeasurement = "nM"
resultvalue = 9

[[record]]
compoundstring = "C[C@@H](CN1C(=O)c2c3c(c(O)c(=O)n2[C@@]12CC[C@H]1C[C@H]12)C(=O)N(Cc1ccc(F)c(Cl)c1)CC3)OC(=O)[C@@H](N)CCCCN"
unitofmeasurement = "nM"
resultvalue = 40

[[record]]
compoundstring = "C[C@@H](CN1C(=O)c2c3c(c(O)c(=O)n2[C@@]12CC[C@H]1C[C@H]12)C(=O)N(Cc1ccc(F)c(Cl)c1)CC3)OP(=O)(O)O"
unitofmeasurement = "nM"
resultvalue = 1580

